# ASSAY TEXT: Cytotoxicity against in Balb/c mouse T cells at 10^-6 M after 48 hrs by MTT assay
# Type: cell-based
# COND: t-cell, 1 µM

{"SMILES INPUT": "Cc1ccc(I)cc1-n1nncc1COc1cc(C)c2c(c1C)[C@@H]1OC(=O)[C@@H](C)[C@@H]1CC2", "Activity": "Non-toxic"}
{"SMILES INPUT": "Cc1cc(OCc2cnnn2-c2ccc(Cl)nc2)c(C)c2c1CC[C@H]1[C@H](C)C(=O)O[C@@H]21", "Activity": "Toxic"}
{"SMILES INPUT": "CC(=O)Nc1ccc(-n2nncc2COc2cc(C)c3c(c2C)[C@@H]2OC(=O)[C@@H](C)[C@@H]2CC3)cc1", "Activity": "Toxic"}
{"SMILES INPUT": "Cc1cc(OCc2cnnn2-c2cc(F)c(F)cc2Br)c(C)c2c1CC[C@H]1[C@H](C)C(=O)O[C@@H]21", "Activity": "Toxic"}
{"SMILES INPUT": "CC(=O)Oc1cc(C)c2c(c1C)[C@@H]1OC(=O)[C@@H](C)[C@@H]1CC2", "Activity": "Non-toxic"}
{"SMILES INPUT": "COc1ccc(F)c(-n2nncc2COc2cc(C)c3c(c2C)[C@@H]2OC(=O)[C@@H](C)[C@@H]2CC3)c1Br", "Activity": "Toxic"}
{"SMILES INPUT": "Cc1cc(O)c(C)c2c1CC[C@H]1[C@H](C)C(=O)O[C@@H]21", "Activity": "Non-toxic"}
{"SMILES INPUT": "COc1c(Br)cc(C)cc1-n1nncc1COc1cc(C)c2c(c1C)[C@@H]1OC(=O)[C@@H](C)[C@@H]1CC2", "Activity": "Non-toxic"}
{"SMILES INPUT": "Cc1cc(OCc2cnnn2-c2ccc3c(c2)OCO3)c(C)c2c1CC[C@H]1[C@H](C)C(=O)O[C@@H]21", "Activity": "Non-toxic"}
{"SMILES INPUT": "Cc1cc(OCc2cnnn2-c2ccc(C=O)cc2)c(C)c2c1CC[C@H]1[C@H](C)C(=O)O[C@@H]21", "Activity": "Non-toxic"}
{"SMILES INPUT": "Cc1cc(OCc2cnnn2-c2ccccc2C(F)(F)F)c(C)c2c1CC[C@H]1[C@H](C)C(=O)O[C@@H]21", "Activity": "Non-toxic"}
{"SMILES INPUT": "Cc1cc(OCc2cnnn2-c2ccc3ccccc3c2)c(C)c2c1CC[C@H]1[C@H](C)C(=O)O[C@@H]21", "Activity": "Non-toxic"}
{"SMILES INPUT": "Cc1cc(OCc2cnnn2-c2ccc(-c3ccccc3)cc2)c(C)c2c1CC[C@H]1[C@H](C)C(=O)O[C@@H]21", "Activity": "Non-toxic"}
{"SMILES INPUT": "COc1ccc(-n2nncc2COc2cc(C)c3c(c2C)[C@@H]2OC(=O)[C@@H](C)[C@@H]2CC3)cc1OC", "Activity": "Non-toxic"}
{"SMILES INPUT": "Cc1cc(OCc2cnnn2-c2cccc(Br)c2COc2cccc(Br)c2)c(C)c2c1CC[C@H]1[C@H](C)C(=O)O[C@@H]21", "Activity": "Toxic"}

* * *

# ASSAY TEXT: Cytotoxicity against in Balb/c mouse T cells at 10^-6 M after 48 hrs by MTT assay
# Type: cell-based
# COND: t-cell, 1 µM

{"SMILES INPUT": "Cc1cc(OCc2cnnn2/C=C/c2ccccc2)c(C)c2c1CC[C@H]1[C@H](C)C(=O)O[C@@H]21", "Activity": "Non-toxic"}
{"SMILES INPUT": "Cc1cc(OCc2cnnn2-c2c(Br)ccc(I)c2F)c(C)c2c1CC[C@H]1[C@H](C)C(=O)O[C@@H]21", "Activity": "Non-toxic"}
{"SMILES INPUT": "Cc1cc(OCc2cnnn2-c2cccc([N+](=O)[O-])c2)c(C)c2c1CC[C@H]1[C@H](C)C(=O)O[C@@H]21", "Activity": "Non-toxic"}
{"SMILES INPUT": "CCCOc1ccc(-n2nncc2COc2cc(C)c3c(c2C)[C@@H]2OC(=O)[C@@H](C)[C@@H]2CC3)cc1Cl", "Activity": "Non-toxic"}
{"SMILES INPUT": "Cc1cc(OCc2cnnn2-c2cc(F)ccc2I)c(C)c2c1CC[C@H]1[C@H](C)C(=O)O[C@@H]21", "Activity": "Toxic"}
{"SMILES INPUT": "COc1cc(-n2nncc2COc2cc(C)c3c(c2C)[C@@H]2OC(=O)[C@@H](C)[C@@H]2CC3)cc(OC)c1OC", "Activity": "Non-toxic"}
{"SMILES INPUT": "Cc1cc(OCc2cnnn2-c2ccc(F)cc2)c(C)c2c1CC[C@H]1[C@H](C)C(=O)O[C@@H]21", "Activity": "Non-toxic"}

* * *

# ASSAY TEXT: Cytotoxicity against in Balb/c mouse T cells at 10^-4 M after 48 hrs by MTT assay
# Format: cell-based
# COND: t-cell, 100 µM
PARAMETER MEASURED: Activity

{"SMILES INPUT": "Cc1ccc(I)cc1-n1nncc1COc1cc(C)c2c(c1C)[C@@H]1OC(=O)[C@@H](C)[C@@H]1CC2", "PARAMETER MEASURED": "Activity", "RESULT": "Non-toxic"}
{"SMILES INPUT": "Cc1cc(OCc2cnnn2/C=C/c2ccccc2)c(C)c2c1CC[C@H]1[C@H](C)C(=O)O[C@@H]21", "PARAMETER MEASURED": "Activity", "RESULT": "Non-toxic"}
{"SMILES INPUT": "CC(=O)Nc1ccc(-n2nncc2COc2cc(C)c3c(c2C)[C@@H]2OC(=O)[C@@H](C)[C@@H]2CC3)cc1", "PARAMETER MEASURED": "Activity", "RESULT": "Toxic"}
{"SMILES INPUT": "COc1ccc2cc(-n3nncc3COc3cc(C)c4c(c3C)[C@@H]3OC(=O)[C@@H](C)[C@@H]3CC4)ccc2c1", "PARAMETER MEASURED": "Activity", "RESULT": "Non-toxic"}
{"SMILES INPUT": "Cc1cc(OCc2cnnn2-c2cccc(Br)c2COc2cccc(Br)c2)c(C)c2c1CC[C@H]1[C@H](C)C(=O)O[C@@H]21", "PARAMETER MEASURED": "Activity", "RESULT": "Non-toxic"}
{"SMILES INPUT": "Cc1cc(OCc2cnnn2-c2ccc3c(c2)OCO3)c(C)c2c1CC[C@H]1[C@H](C)C(=O)O[C@@H]21", "PARAMETER MEASURED": "Activity", "RESULT": "Non-toxic"}
{"SMILES INPUT": "Cc1cc(OCc2cnnn2-c2ccc(-c3ccccc3)cc2)c(C)c2c1CC[C@H]1[C@H](C)C(=O)O[C@@H]21", "PARAMETER MEASURED": "Activity", "RESULT": "Toxic"}
{"SMILES INPUT": "Cc1cc(OCc2cnnn2-c2cccc(O)c2)c(C)c2c1CC[C@H]1[C@H](C)C(=O)O[C@@H]21", "PARAMETER MEASURED": "Activity", "RESULT": "Non-toxic"}
{"SMILES INPUT": "Cc1cc(OCc2cnnn2-c2ccc(Cl)nc2)c(C)c2c1CC[C@H]1[C@H](C)C(=O)O[C@@H]21", "PARAMETER MEASURED": "Activity", "RESULT": "Non-toxic"}
{"SMILES INPUT": "COc1ccc(F)c(-n2nncc2COc2cc(C)c3c(c2C)[C@@H]2OC(=O)[C@@H](C)[C@@H]2CC3)c1Br", "PARAMETER MEASURED": "Activity", "RESULT": "Toxic"}
{"SMILES INPUT": "Cc1cc(OCc2cnnn2-c2c(Br)ccc(I)c2F)c(C)c2c1CC[C@H]1[C@H](C)C(=O)O[C@@H]21", "PARAMETER MEASURED": "Activity", "RESULT": "Non-toxic"}
{"SMILES INPUT": "Cc1cc(OCc2cnnn2-c2cc(F)ccc2I)c(C)c2c1CC[C@H]1[C@H](C)C(=O)O[C@@H]21", "PARAMETER MEASURED": "Activity", "RESULT": "Toxic"}
{"SMILES INPUT": "Cc1cc(OCc2cnnn2-c2ccc(F)cc2)c(C)c2c1CC[C@H]1[C@H](C)C(=O)O[C@@H]21", "PARAMETER MEASURED": "Activity", "RESULT": "Non-toxic"}
{"SMILES INPUT": "CC(=O)Oc1cc(C)c2c(c1C)[C@@H]1OC(=O)[C@@H](C)[C@@H]1CC2", "PARAMETER MEASURED": "Activity", "RESULT": "Non-toxic"}
{"SMILES INPUT": "Cc1cc(OCc2cnnn2-c2cccc(C(N)=O)c2)c(C)c2c1CC[C@H]1[C@H](C)C(=O)O[C@@H]21", "PARAMETER MEASURED": "Activity", "RESULT": "Non-toxic"}
{"SMILES INPUT": "COc1cc(-n2nncc2COc2cc(C)c3c(c2C)[C@@H]2OC(=O)[C@@H](C)[C@@H]2CC3)cc(OC)c1OC", "PARAMETER MEASURED": "Activity", "RESULT": "Non-toxic"}
{"SMILES INPUT": "Cc1cc(OCc2cnnn2-c2cccc([N+](=O)[O-])c2)c(C)c2c1CC[C@H]1[C@H](C)C(=O)O[C@@H]21", "PARAMETER MEASURED": "Activity", "RESULT": "Toxic"}
{"SMILES INPUT": "C#CCOc1cc(C)c2c(c1C)[C@@H]1OC(=O)[C@@H](C)[C@@H]1CC2", "PARAMETER MEASURED": "Activity", "RESULT": "Non-toxic"}
{"SMILES INPUT": "Cc1cc(OCc2cnnn2-c2cc(F)c(F)cc2Br)c(C)c2c1CC[C@H]1[C@H](C)C(=O)O[C@@H]21", "PARAMETER MEASURED": "Activity", "RESULT": "Toxic"}
{"SMILES INPUT": "CCCOc1ccc(-n2nncc2COc2cc(C)c3c(c2C)[C@@H]2OC(=O)[C@@H](C)[C@@H]2CC3)cc1Cl", "PARAMETER MEASURED": "Activity", "RESULT": "Non-toxic"}
{"SMILES INPUT": "Cc1cc(O)c(C)c2c1CC[C@H]1[C@H](C)C(=O)O[C@@H]21", "PARAMETER MEASURED": "Activity", "RESULT": "Non-toxic"}
{"SMILES INPUT": "COc1c(Br)cc(C)cc1-n1nncc1COc1cc(C)c2c(c1C)[C@@H]1OC(=O)[C@@H](C)[C@@H]1CC2", "PARAMETER MEASURED": "Activity", "RESULT": "Non-toxic"}
{"SMILES INPUT": "Cc1cc(OCc2cnnn2-c2ccc(Br)c3ccccc23)c(C)c2c1CC[C@H]1[C@H](C)C(=O)O[C@@H]21", "PARAMETER MEASURED": "Activity", "RESULT": "Toxic"}
{"SMILES INPUT": "Cc1cc(OCc2cnnn2-c2ccc(C=O)cc2)c(C)c2c1CC[C@H]1[C@H](C)C(=O)O[C@@H]21", "PARAMETER MEASURED": "Activity", "RESULT": "Non-toxic"}
{"SMILES INPUT": "CC1=C2[C@H]3OC(=O)[C@@H](C)[C@@H]3CC[C@@]2(C)C=CC1=O", "PARAMETER MEASURED": "Activity", "RESULT": "Non-toxic"}
{"SMILES INPUT": "Cc1cc(OCc2cnnn2-c2cccc(I)c2)c(C)c2c1CC[C@H]1[C@H](C)C(=O)O[C@@H]21", "PARAMETER MEASURED": "Activity", "RESULT": "Non-toxic"}
{"SMILES INPUT": "COc1ccc(-n2nncc2COc2cc(C)c3c(c2C)[C@@H]2OC(=O)[C@@H](C)[C@@H]2CC3)cc1OC", "PARAMETER MEASURED": "Activity", "RESULT": "Toxic"}
{"SMILES INPUT": "Cc1cc(OCc2cnnn2-c2ccc3ccccc3c2)c(C)c2c1CC[C@H]1[C@H](C)C(=O)O[C@@H]21", "PARAMETER MEASURED": "Activity", "RESULT": "Toxic"}
{"SMILES INPUT": "Cc1cc(OCc2cnnn2-c2ccccc2C(F)(F)F)c(C)c2c1CC[C@H]1[C@H](C)C(=O)O[C@@H]21", "PARAMETER MEASURED": "Activity", "RESULT": "Non-toxic"}
{"SMILES INPUT": "Cc1cc(OCc2cnnn2-c2ccccc2)c(C)c2c1CC[C@H]1[C@H](C)C(=O)O[C@@H]21", "PARAMETER MEASURED": "Activity", "RESULT": "Toxic"}
{"SMILES INPUT": "Cc1cc(OCc2cnnn2-c2ccc(Br)cc2)c(C)c2c1CC[C@H]1[C@H](C)C(=O)O[C@@H]21", "PARAMETER MEASURED": "Activity", "RESULT": "Non-toxic"}
